system under test: C-C chemokine receptor type 6 (Homo sapiens, UniProt P51684)
Sequence (P51684 whole entry): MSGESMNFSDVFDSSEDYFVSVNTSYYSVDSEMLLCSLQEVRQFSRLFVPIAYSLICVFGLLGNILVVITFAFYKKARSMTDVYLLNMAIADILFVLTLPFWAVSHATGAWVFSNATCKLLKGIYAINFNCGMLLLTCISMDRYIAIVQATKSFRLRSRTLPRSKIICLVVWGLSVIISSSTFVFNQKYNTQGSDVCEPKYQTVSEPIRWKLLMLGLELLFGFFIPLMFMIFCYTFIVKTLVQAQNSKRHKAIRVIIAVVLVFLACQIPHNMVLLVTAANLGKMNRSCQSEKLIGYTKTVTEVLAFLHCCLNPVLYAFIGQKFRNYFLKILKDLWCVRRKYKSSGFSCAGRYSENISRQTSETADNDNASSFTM
measured parameter: IC50

Challenge: Item COc1cc(C(=O)N[C@@H]2C[C@H]3CCC[C@@H](C2)N3CC(=O)Nc2ccccc2Cl)cc(OC)c1OC has what recorded IC50?
Response given: > 80 µM
